# Tested on: 26-10 BABS (sFv), single chain biosynthetic antibody binding site VH-(Gly4-Ser)3-VL mimicking murine anti-digoxin monoclonal 26-10
# Measurement Description: Specificity determination by radioimmunoassay (inhibition of 125I-digoxin binding), 26-10 BABS
# Recorded Conditions: normalizing glycoside Digoxigenin
Measured Endpoint: normalized concentration of inhibitor giving 50% inhibition of 125I-digoxin binding

Molecule | Recorded Value
C[C@@H]1O[C@@H](O[C@H]2C[C@@H](O)[C@]3(CO)[C@H]4[C@H](O)C[C@]5(C)[C@@H](C6=CC(=O)OC6)CC[C@]5(O)[C@@H]4CC[C@]3(O)C2)[C@H](O)[C@H](O)[C@H]1O | 21
C[C@]12CC[C@H](O)C[C@H]1CC[C@@H]1[C@@H]2CC[C@]2(C)[C@@H](C3=CC(=O)OC3)CC[C@]12O | 0.4
CC(=O)OC1CCC2(C=O)C3CCC4(C)C(C5=CC(=O)OC5)CCC4(O)C3CCC2(O)C1 (stereo not drawn) | 0.8
C[C@H]1O[C@@H](O[C@H]2[C@@H](O)C[C@H](O[C@H]3[C@@H](O)C[C@H](O[C@H]4CC[C@@]5(C)[C@H](CC[C@@H]6[C@@H]5CC[C@]5(C)[C@@H](C7=CC(=O)OC7)[C@@H](O)C[C@]65O)C4)O[C@@H]3C)O[C@@H]2C)C[C@H](O)[C@@H]1O | 8.5
C[C@H]1O[C@@H](O[C@H]2[C@@H](O)C[C@H](O[C@H]3[C@@H](O)C[C@H](O[C@H]4CC[C@@]5(C)[C@H](CC[C@@H]6[C@@H]5CC[C@]5(C)[C@@H](C7=CC(=O)OC7)CC[C@]65O)C4)O[C@@H]3C)O[C@@H]2C)C[C@H](O)[C@@H]1O | 0.3
C[C@]12CC[C@H](O)C[C@H]1CC[C@@H]1[C@@H]2C[C@@H](O)[C@]2(C)[C@@H](C3=CC(=O)OC3)CC[C@]12O | 1.0

// provenance: patent US5482858A
